Values compiled from paper PMC2532997.

Test system: C. elegans fem-1(hc17) sterile adults
Measurement Protocol: Adult survival assay of sterile fem-1(hc17) adults on compound-supplemented medium
Assay type: in vivo, Caenorhabditis elegans
Setup Conditions: Trial 3, 200 μM
For each entry below, report its Relative survival value.
One number for each entry, in %.

Sample records with Relative survival:
{"columns": ["Molecule", "Measured Endpoint", "Experimental Value"],
 "data": [
  ["COc1cc(O)cc(/C=C/c2ccc(O)cc2)c1", "Relative survival", 99],
  ["Oc1cc(O)cc(/C=C/c2ccc(O)c(O)c2)c1 [Piceatannol, piceatannol, reference compound]", "Relative survival", 114],
  ["COc1ccc(/C=C/c2cc(O)cc(O)c2)cc1", "Relative survival", 76]
]}

Value lookup for Relative survival; key = Oc1ccc(/C=C/c2cc(O)cc(O)c2)cc1 [Resveratrol, resveratrol, reference compound]
111

* * *

System: C. elegans fem-1(hc17) sterile adults
Measurement Protocol: Adult survival assay of sterile fem-1(hc17) adults on compound-supplemented medium
Assay type: in vivo, Caenorhabditis elegans
Setup Conditions: Trial 3, 200 μM; control 15.37 days
Procedure: For survival assays, young adult (day 0) animals were transferred onto fresh medium supplemented with the test compound at a range of concentrations. The compounds were tested at indicated concentrations in the growth medium (below). C. elegans nematodes are surrounded by a thick collagenous cuticle and are therefore relatively impermeable to environmental compounds. […] Survival was scored every 2–3 days as the ability to move in response to a gentle mechanical stimulus. […]
Would you mind telling me the reported Mean lifespan, Treated of each entry?
One number for each entry, in days.

Before answering, review these 3 worked examples.
{"columns": ["Molecule", "Experimental Value"],
 "data": [
  ["Oc1ccc(/C=C/c2cc(O)cc(O)c2)cc1 [Resveratrol, resveratrol, reference compound]", 17],
  ["COc1ccc(/C=C/c2cc(O)cc(O)c2)cc1 [Desoxyrhapontigenin, desoxyrhapontigenin]", 11.61],
  ["COc1cc(O)cc(/C=C/c2ccc(O)cc2)c1 [Pinostilbene, pinostilbene]", 15.23]
]}

Query molecule follows.
I'm curious: which Mean lifespan, Treated was measured for Oc1cc(O)cc(/C=C/c2ccc(O)c(O)c2)c1 [Piceatannol, piceatannol, reference compound] tested on C. elegans fem-1(hc17) sterile adults?
17.5

* * *

Tested on: C. elegans fem-1(hc17) sterile adults
Measurement Protocol: Adult survival assay of sterile fem-1(hc17) adults on compound-supplemented medium
Format: in vivo, Caenorhabditis elegans
Setup Conditions: Trial 6, 100 μM
Exercise: state measured Relative survival for each of the molecules provided.
Answers are plain numbers, in %.

{"columns": ["Molecule", "Relative survival / %"],
 "data": [
  ["COc1ccc(/C=C/c2cc(OC)cc(OC)c2)cc1", 49],
  ["COc1cc(O)cc(/C=C/c2ccc(O)cc2)c1", 106]
]}

Report Relative survival for every entry below.
1. Oc1ccc(/C=C/c2cc(O)cc(O)c2)cc1 [Resveratrol, resveratrol, reference compound]
2. COc1ccc(/C=C/c2cc(O)cc(O)c2)cc1
3. COc1ccc(C=Cc2cc(O)cc(OC)c2)cc1 [3-OH-5,4'-dimethoxystilbene, 3-hydroxy-5,4'-dimethoxystilbene]
4. COc1cc(/C=C/c2ccc(O)cc2)cc(OC)c1
5. Oc1cc(O)cc(/C=C/c2ccc(O)c(O)c2)c1 [Piceatannol, piceatannol, reference compound]

[115, 89, 43, 72, 108]

* * *

System: C. elegans fem-1(hc17) sterile adults
Measurement Protocol: Adult survival assay of sterile fem-1(hc17) adults on compound-supplemented medium
Assay type: in vivo, Caenorhabditis elegans
Setup Conditions: Trial 6, 20 μM
For each entry below, report its Relative survival value.
Answers are plain numbers, in %.

Hey, can you go through the list below and give me Relative survival for every item?
1. Oc1ccc(/C=C/c2cc(O)cc(O)c2)cc1 [Resveratrol, resveratrol, reference compound]
2. COc1ccc(C=Cc2cc(O)cc(OC)c2)cc1 [3-OH-5,4'-dimethoxystilbene, 3-hydroxy-5,4'-dimethoxystilbene]
3. COc1cc(/C=C/c2ccc(O)cc2)cc(OC)c1
4. COc1ccc(/C=C/c2cc(O)cc(O)c2)cc1

[96, 68, 90, 93]

* * *

Test system: C. elegans fem-1(hc17) sterile adults
Measurement Protocol: Adult survival assay of sterile fem-1(hc17) adults on compound-supplemented medium
Assay type: in vivo, Caenorhabditis elegans
Setup Conditions: Trial 3, 100 μM; control 15.37 days
Experimental: For survival assays, young adult (day 0) animals were transferred onto fresh medium supplemented with the test compound at a range of concentrations. The compounds were tested at indicated concentrations in the growth medium (below). C. elegans nematodes are surrounded by a thick collagenous cuticle and are therefore relatively impermeable to environmental compounds. […] Survival was scored every 2–3 days as the ability to move in response to a gentle mechanical stimulus. […]
So I've got a bunch of compounds here, and I need their Mean lifespan, Treated values.
Please state the value followed by its unit.

{"columns": ["Compound", "Target Of Assay", "Measured Endpoint", "Experimental Value"],
 "data": [
  ["COc1ccc(/C=C/c2cc(O)cc(O)c2)cc1 [Desoxyrhapontigenin, desoxyrhapontigenin]", "C. elegans fem-1(hc17) sterile adults", "Mean lifespan, Treated", "11.31 days"],
  ["COc1cc(O)cc(/C=C/c2ccc(O)cc2)c1 [Pinostilbene, pinostilbene]", "C. elegans fem-1(hc17) sterile adults", "Mean lifespan, Treated", "16.9 days"],
  ["Oc1ccc(/C=C/c2cc(O)cc(O)c2)cc1 [Resveratrol, resveratrol, reference compound]", "C. elegans fem-1(hc17) sterile adults", "Mean lifespan, Treated", "16.64 days"]
]}

Next item in the queue.
Which Mean lifespan, Treated is reported for this compound? Oc1cc(O)cc(/C=C/c2ccc(O)c(O)c2)c1 [Piceatannol, piceatannol, reference compound]
17.78 days

* * *

System: C. elegans fem-1(hc17) sterile adults
Measurement Protocol: Adult survival assay of sterile fem-1(hc17) adults on compound-supplemented medium
Assay type: in vivo, Caenorhabditis elegans
Setup Conditions: Trial 1, 100 μM in medium, from day 0 of adulthood, 25°C; control 12.16 days
Measured Endpoint: Mean lifespan, Treated (days)
Answers are plain numbers, in days.

Reference set, count: 5
{"columns": ["Compound", "Unit Spec", "Mean lifespan, Treated"],
 "data": [
  ["COc1cc(/C=C/c2ccc(O)cc2)cc(OC)c1", "days", 9.55],
  ["COc1cc(O)cc(/C=C/c2ccc(O)cc2)c1", "days", 13.6],
  ["COc1ccc(C=Cc2cc(O)cc(OC)c2)cc1 [3-OH-5,4'-dimethoxystilbene, 3-hydroxy-5,4'-dimethoxystilbene]", "days", 6.34],
  ["Oc1ccc(/C=C/c2cc(O)cc(O)c2)cc1 [Resveratrol, resveratrol, reference compound]", "days", 12.18],
  ["COc1ccc(/C=C/c2cc(OC)cc(OC)c2)cc1", "days", 9.7]
]}

Continue with the next compound.
Tell me the measured Mean lifespan, Treated of COc1ccc(/C=C/c2cc(O)cc(O)c2)cc1 , please.
10.64
